- testMethodNotes: TOX21_p53_BLA_p5_viability: Viability Assessment in the Tox21 HCT-116 p53 Agonism Beta-lactamase Assay, Phase 5 (AID 2283600)
Inconclusive results are not listed. Calls of active or inactive are those of the source. The calls were made as follows: active = hit-call score of the fitted dose curve at least 0.9, where 1 is the maximum; inconclusive = response in the unintended direction; inactive = score below 0.9.
Labels: active, inactive

[
  {
    "compound": "c1cc(OCC2CO2)cc(OCC2CO2)c1 (stereo unspecified)",
    "label": "inactive"
  },
  {
    "compound": "CCC(=C(CC)c1ccc(O)cc1)c1ccc(O)cc1",
    "label": "inactive"
  },
  {
    "compound": "CCCCCCCC[N+](CCCCCCCC)(CCCCCCCC)CCCCCCCC",
    "label": "active"
  },
  {
    "compound": "COc1c(C)c2c(c(O)c1C/C=C(\\C)CCC(=O)OCCN1CCOCC1)C(=O)OC2",
    "label": "inactive"
  },
  {
    "compound": "Cc1c(Nc2ncccc2C(=O)O)cccc1C(F)(F)F",
    "label": "inactive"
  },
  {
    "compound": "O=C(CCCN1CCC(O)(c2ccc(Br)cc2)CC1)c1ccc(F)cc1",
    "label": "inactive"
  },
  {
    "compound": "COC(=O)c1ccccc1Cl",
    "label": "inactive"
  },
  {
    "compound": "CC(C)(C)NCC(O)c1ccc(O)c(CO)n1 (stereo unspecified)",
    "label": "inactive"
  },
  {
    "compound": "CO[C@@]12[C@H](COC(N)=O)C3=C(C(=O)C(C)=C(N)C3=O)N1C[C@@H]1N[C@@H]12",
    "label": "active"
  },
  {
    "compound": "O=[N+]([O-])c1c(Cl)cccc1-c1c[nH]cc1Cl",
    "label": "inactive"
  },
  {
    "compound": "CO[C@@H]1[C@@H](O[C@@H]2O[C@H](C)[C@@H](O[C@H]3C[C@@](C)(O)[C@@H](OC(=O)CC(C)C)[C@H](C)O3)[C@H](N(C)C)[C@H]2O)[C@@H](CC=O)C[C@@H](C)C(=O)/C=C/C2OC2C[C@@H](C)OC(=O)C[C@H]1OC(C)=O (stereo partly specified)",
    "label": "inactive"
  },
  {
    "compound": "OCCOCCN1CCN(C(c2ccccc2)c2ccc(Cl)cc2)CC1 (stereo unspecified)",
    "label": "inactive"
  },
  {
    "compound": "CCCOc1ccc2nc(NC(=O)OC)sc2c1",
    "label": "inactive"
  },
  {
    "compound": "CCOC(=O)OC(C)OC1=C(C(=O)Nc2ccccn2)N(C)S(=O)(=O)c2ccccc21 (stereo unspecified)",
    "label": "inactive"
  },
  {
    "compound": "CC(C)=CCC1C(=O)N(c2ccccc2)N(c2ccccc2)C1=O",
    "label": "active"
  },
  {
    "compound": "CC1(O)CCC(C(C)(C)O)CC1 (stereo unspecified)",
    "label": "inactive"
  },
  {
    "compound": "Cc1ccc2c(Cl)cc(Cl)c(O)c2n1",
    "label": "inactive"
  },
  {
    "compound": "N#Cc1ccc2c(c1)N(CCCN1CCC(O)CC1)c1ccccc1S2",
    "label": "inactive"
  },
  {
    "compound": "CCN(CC)CCNC(=O)c1ccc(NC(C)=O)cc1",
    "label": "inactive"
  },
  {
    "compound": "O=C(O)Cc1cccc(-c2cc(CCCCCCc3ccc(O[C@H]4O[C@H](CO)[C@@H](O)[C@H](O)[C@@H]4O)c(-c4cccc(CC(=O)O)c4)c3)ccc2O[C@H]2O[C@H](CO)[C@@H](O)[C@H](O)[C@@H]2O)c1",
    "label": "inactive"
  },
  {
    "compound": "CC1(C)S[C@@H]2[C@H](NC(=O)[C@H](N)c3ccc(O)cc3)C(=O)N2[C@H]1C(=O)O",
    "label": "inactive"
  }
]
